# credit: patent US4738970A

- Target entity: H^+ -K^+ -ATPase (Sus scrofa, UniProt P19156)
- Construct: which was prepared from the stomach of swine; from tissue; host or cells: stomach of swine
- Sequence (P19156 2-1034 limits assumed): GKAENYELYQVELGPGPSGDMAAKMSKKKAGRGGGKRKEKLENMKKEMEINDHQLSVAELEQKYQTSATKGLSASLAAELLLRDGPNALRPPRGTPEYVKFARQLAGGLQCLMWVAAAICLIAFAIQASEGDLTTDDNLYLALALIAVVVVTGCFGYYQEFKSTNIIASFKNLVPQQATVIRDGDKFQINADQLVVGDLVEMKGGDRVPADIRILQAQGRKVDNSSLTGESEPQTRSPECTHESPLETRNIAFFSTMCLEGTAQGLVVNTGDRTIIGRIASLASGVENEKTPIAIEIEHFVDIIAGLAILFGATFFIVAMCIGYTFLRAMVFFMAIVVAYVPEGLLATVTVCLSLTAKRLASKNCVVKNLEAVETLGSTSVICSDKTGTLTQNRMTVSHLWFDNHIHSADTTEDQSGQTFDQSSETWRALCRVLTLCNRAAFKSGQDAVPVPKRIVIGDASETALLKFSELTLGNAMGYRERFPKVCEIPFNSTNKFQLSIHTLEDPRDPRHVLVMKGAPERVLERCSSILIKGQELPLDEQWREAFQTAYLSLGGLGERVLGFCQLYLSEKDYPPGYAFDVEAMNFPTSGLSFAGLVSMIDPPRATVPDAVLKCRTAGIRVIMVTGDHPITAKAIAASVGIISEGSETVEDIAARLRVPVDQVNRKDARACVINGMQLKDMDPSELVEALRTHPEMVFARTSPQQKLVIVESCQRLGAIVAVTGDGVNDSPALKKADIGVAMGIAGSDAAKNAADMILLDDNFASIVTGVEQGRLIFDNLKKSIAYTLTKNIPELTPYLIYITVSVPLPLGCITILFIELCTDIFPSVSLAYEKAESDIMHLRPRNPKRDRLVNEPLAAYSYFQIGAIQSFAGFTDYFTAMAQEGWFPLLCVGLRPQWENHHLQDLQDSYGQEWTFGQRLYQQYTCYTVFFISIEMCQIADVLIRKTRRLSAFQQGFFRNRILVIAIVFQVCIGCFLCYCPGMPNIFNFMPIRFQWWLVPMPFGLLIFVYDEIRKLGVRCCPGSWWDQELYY
- Sequence (P18434 whole entry partner): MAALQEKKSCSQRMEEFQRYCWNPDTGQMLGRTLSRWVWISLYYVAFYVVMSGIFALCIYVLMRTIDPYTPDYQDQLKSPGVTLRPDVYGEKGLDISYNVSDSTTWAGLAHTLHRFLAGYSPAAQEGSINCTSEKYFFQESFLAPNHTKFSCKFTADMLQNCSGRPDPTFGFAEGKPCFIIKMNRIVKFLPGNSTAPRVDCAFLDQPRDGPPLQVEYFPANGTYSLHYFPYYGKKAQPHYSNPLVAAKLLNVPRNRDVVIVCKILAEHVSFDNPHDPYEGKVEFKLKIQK
- Measurement notes: Inhibitory Effect Test for the Activity of H^+ -K^+ -ATPase
- Assay type: biochemical
- Study conditions: H+-K+-ATPase from the stomach of swine; preincubation pH 6.1, room temperature 30 min; reaction pH 7.4, 37° C. 30 min; read-out: IC50 (50% inhibition dosage)
pIC50: −log10 of the molar value.
Assign condition met whenever pIC50 does not fall below 6; assign condition not met whenever it does.

Worked examples, 5 compounds total:
>  <Compound>
Cc1cnc2c(c1)CCCC2[S+]([O-])c1nc2ccc(F)cc2[nH]1 (centres unmarked) [Test compound 40]

>  <Label class>
condition not met

$$$$
>  <Compound>
COc1ccnc2c1CCCC2[S+]([O-])c1nc2ccc(C(F)(F)F)cc2[nH]1 (centres unmarked) [Test compound 25]

>  <Label class>
condition not met

$$$$
>  <Compound>
COc1c(C)cnc2c1CCCC2[S+]([O-])c1nc2cc(C)c(C)cc2[nH]1 (centres unmarked) [Test compound 38]

>  <Label class>
condition met

$$$$
>  <Compound>
C#CCOc1c(C)cnc2c1CCCC2[S+]([O-])c1nc2cc(Cl)c(Cl)cc2[nH]1 (centres unmarked) [Test compound 8]

>  <Label class>
condition met

$$$$
>  <Compound>
COc1cc2nc([S+]([O-])C3CCCc4c3ncc(C)c4OC)[nH]c2cc1F (centres unmarked) [Test compound 48]

>  <Label class>
condition met

$$$$

Reported pIC50 reaches at least 6 for [O-][S+](c1nc2ccc(C(F)(F)F)cc2[nH]1)C1CCCc2cccnc21 (centres unmarked) [Test compound 28] ?
condition not met

Reported pIC50 reaches at least 6 for C=CCOc1c(C)cnc2c1CCCC2[S+]([O-])c1nc2cc(F)c(F)cc2[nH]1 (centres unmarked) [Test compound 2] ?
condition not met

Reported pIC50 reaches at least 6 for COc1c(C)cnc2c1CCCC2[S+]([O-])c1nc2cc(F)c(F)cc2[nH]1 (centres unmarked) [Test compound 43] ?
condition met

Reported pIC50 reaches at least 6 for COc1c(C)cnc(C[S+]([O-])c2nc3nc(Br)ccc3[nH]2)c1C (centres unmarked) [Test compound 45] ?
condition not met

Reported pIC50 reaches at least 6 for COc1cc2nc([S+]([O-])C3CCCc4cc(C)cnc43)[nH]c2cc1OC (centres unmarked) [Test compound 19] ?
condition not met

###

- Target entity: H^+ -K^+ -ATPase (Sus scrofa)
- Construct: which was prepared from the stomach of swine
- Measurement notes: Inhibitory Effect Test for the Activity of H^+ -K^+ -ATPase
- Study conditions: H+-K+-ATPase from the stomach of swine; preincubation pH 6.1, room temperature 30 min; reaction pH 7.4, 37° C. 30 min; read-out: IC50 (50% inhibition dosage)
// values below are reported pIC50
As a rule, pIC50 stands for the negative log10 of the concentration, concentration in M.

As a guide, the following entries are already answered.
>  <Compound>
COc1c(C)cnc(C[S+]([O-])c2nc3cnccc3[nH]2)c1C (centres unmarked)

>  <pIC50>
4.53

$$$$
>  <Compound>
O=[N+]([O-])c1ccc2nc([S+]([O-])C3CCCc4cccnc43)[nH]c2c1 (centres unmarked)

>  <pIC50>
5.54

$$$$
>  <Compound>
COCCOc1c(C)cnc2c1CCCC2[S+]([O-])c1nc2ccc(F)cc2[nH]1 (centres unmarked)

>  <pIC50>
6.06

$$$$
>  <Compound>
COc1ccc2nc([S+]([O-])C3CCCc4ccc(C)nc43)[nH]c2c1 (centres unmarked)

>  <pIC50>
5.82

$$$$
>  <Compound>
COc1c(C)cnc2c1CCCC2[S+]([O-])c1nc2cc(Cl)c(Cl)cc2[nH]1 (centres unmarked)

>  <pIC50>
7.00

$$$$

Looking for the measured pIC50 of Cc1cnc2c(c1)CCCC2[S+]([O-])c1nc2ccccc2[nH]1 (centres unmarked) , can you help?
5.74

Looking for the measured pIC50 of COCCOc1c(C)cnc2c1CCCC2[S+]([O-])c1nc2ccccc2[nH]1 (centres unmarked) , can you help?
6.08

Looking for the measured pIC50 of CCOc1cc2[nH]c([S+]([O-])C3CCCc4cccnc43)nc2cc1F (centres unmarked) , can you help?
5.47

Looking for the measured pIC50 of CC(=O)c1ccc2nc([S+]([O-])C3CCCc4cc(C)cnc43)[nH]c2c1 (centres unmarked) , can you help?
5.49

Looking for the measured pIC50 of [O-][S+](c1nc2ccc(F)cc2[nH]1)C1CCCc2cccnc21 (centres unmarked) , can you help?
5.77

###

- Target entity: H^+ -K^+ -ATPase (Sus scrofa, UniProt P19156)
- Construct: which was prepared from the stomach of swine
- Measurement notes: Inhibitory Effect Test for the Activity of H^+ -K^+ -ATPase
- Study conditions: H+-K+-ATPase from the stomach of swine; preincubation pH 6.1, room temperature 30 min; reaction pH 7.4, 37° C. 30 min; read-out: IC50 (50% inhibition dosage)
Could you mark each record 1.0 if its IC50 falls strictly under 1000 nM, and 0.0 if it equals or exceeds it?

Worked examples, 5 molecules total:
>  <Molecule>
COc1cc2nc([S+]([O-])C3CCCc4cccnc43)[nH]c2cc1OC (stereo not shown)

>  <Label class>
1.0

$$$$
>  <Molecule>
[O-][S+](c1nc2ccccc2[nH]1)C1CCCc2cccnc21 (stereo not shown)

>  <Label class>
0.0

$$$$
>  <Molecule>
C#CCOc1c(C)cnc2c1CCCC2[S+]([O-])c1nc2ccccc2[nH]1 (stereo not shown)

>  <Label class>
0.0

$$$$
>  <Molecule>
COc1ccc2nc([S+]([O-])C3CCCc4c(C)ccnc43)[nH]c2c1 (stereo not shown)

>  <Label class>
0.0

$$$$
>  <Molecule>
C=CCOc1c(C)cnc2c1CCCC2[S+]([O-])c1nc2ccc(F)cc2[nH]1 (stereo not shown)

>  <Label class>
1.0

$$$$

Please let me know if C#CCOc1c(C)cnc2c1CCCC2[S+]([O-])c1nc2ccc(F)cc2[nH]1 (stereo not shown) shows IC50 below 1000 nM.
0.0

Please let me know if C#CCOc1c(C)cnc2c1CCCC2[S+]([O-])c1nc2cc(C)c(C)cc2[nH]1 (stereo not shown) shows IC50 below 1000 nM.
1.0

Please let me know if COc1ccc2nc([S+]([O-])C3CCCc4c3ncc(C)c4OC)[nH]c2c1 (stereo not shown) shows IC50 below 1000 nM.
1.0

Please let me know if [O-][S+](c1nc2cc(Cl)c(Cl)cc2[nH]1)C1CCCc2cccnc21 (stereo not shown) shows IC50 below 1000 nM.
1.0

Please let me know if COc1ccnc2c1CCCC2[S+]([O-])c1nc2ccc(F)cc2[nH]1 (stereo not shown) shows IC50 below 1000 nM.
1.0

Please let me know if Cc1cnc2c(c1)CCCC2[S+]([O-])c1nc2cc(C)c(C)cc2[nH]1 (stereo not shown) shows IC50 below 1000 nM.
1.0

Please let me know if Cc1cnc2c(c1)C([S+]([O-])c1nc3ccc(C(F)(F)F)cc3[nH]1)CCC2 (stereo not shown) shows IC50 below 1000 nM.
0.0

Please let me know if Cc1cnc2c(c1)CCCC2[S+]([O-])c1nc2cc(Cl)c(Cl)cc2[nH]1 (stereo not shown) shows IC50 below 1000 nM.
1.0

Please let me know if c1ccc(CSc2nc3ncccc3[nH]2)nc1 [Test compound 47, reference compound] shows IC50 below 1000 nM.
0.0

Please let me know if COc1ccc2nc([S+]([O-])C3CCCc4cc(C)cnc43)[nH]c2c1 (stereo not shown) shows IC50 below 1000 nM.
0.0

Please let me know if C=CCOc1c(C)cnc2c1CCCC2[S+]([O-])c1nc2ccccc2[nH]1 (stereo not shown) shows IC50 below 1000 nM.
1.0

Please let me know if C=CCOc1c(C)cnc2c1CCCC2[S+]([O-])c1nc2cc(C)c(C)cc2[nH]1 (stereo not shown) shows IC50 below 1000 nM.
1.0

Please let me know if Cc1cnc2c(c1)CCCC2[S+]([O-])c1nc2ccc(C(F)(F)F)cc2[nH]1 (stereo not shown) shows IC50 below 1000 nM.
0.0

###

- Target entity: H^+ -K^+ -ATPase (Sus scrofa)
- Construct: which was prepared from the stomach of swine
- Measurement notes: Inhibitory Effect Test for the Activity of H^+ -K^+ -ATPase
- Study conditions: H+-K+-ATPase from the stomach of swine; preincubation pH 6.1, room temperature 30 min; reaction pH 7.4, 37° C. 30 min; read-out: IC50 (50% inhibition dosage)
- Experimental: H^+ -K^+ -ATPase (hydrogen-potassium-activated adenosine triphosphatase) (protein content: 10 mcg) which was prepared from the stomach of swine was added to PIPES-tris[buffer PIPES-tris(hydroxymethyl)-2-amino-1,3-propanediol buffer (pH=6.1) containing 2 mM of piperazine-N,N'-bis(2-ethanesulfonic acid)], then the resulting mixture was let allowed to stand at room temperature. […]
Recorded metric: pIC50
As a rule, pIC50 stands for the negative log10 of the concentration, concentration in M.

As a guide, the following entries are already answered.
>  <Compound>
COc1c(C)cnc2c1CCCC2[S+]([O-])c1nc2ccc(F)cc2[nH]1 (stereo not shown) [Test compound 34]

>  <Recorded metric>
pIC50

>  <Test value>
6.66

$$$$
>  <Compound>
COc1ccc2nc([S+]([O-])C3CCCc4ccc(Cl)nc43)[nH]c2c1 (stereo not shown) [Test compound 21]

>  <Recorded metric>
pIC50

>  <Test value>
5.57

$$$$
>  <Compound>
COc1c(C)cnc2c1CCCC2[S+]([O-])c1nc2ccc(Cl)cc2[nH]1 (stereo not shown) [Test compound 50]

>  <Recorded metric>
pIC50

>  <Test value>
6.74

$$$$
>  <Compound>
Cc1cccc2nc([S+]([O-])C3CCCc4cccnc43)[nH]c12 (stereo not shown) [Test compound 33]

>  <Recorded metric>
pIC50

>  <Test value>
5.59

$$$$
>  <Compound>
COc1ccc2nc([S+]([O-])C3CCCc4c(OC)ccnc43)[nH]c2c1 (stereo not shown) [Test compound 24]

>  <Recorded metric>
pIC50

>  <Test value>
5.12

$$$$

Enter reported pIC50 observed with H^+ -K^+ -ATPase (Sus scrofa) for COc1c(C)cnc2c1CCCC2[S+]([O-])c1nc2ccccc2[nH]1 (stereo not shown) [Test compound 35]
6.60

Enter reported pIC50 observed with H^+ -K^+ -ATPase (Sus scrofa) for CCOc1cc2[nH]c([S+]([O-])C3CCCc4c3ncc(C)c4OC)nc2cc1F (stereo not shown) [Test compound 42]
6.62
